These measurements were taken from patent US7998940B2.

System: rabbit vWF A1 domain (SEQ ID NO 6)
Sequence (as listed by the source): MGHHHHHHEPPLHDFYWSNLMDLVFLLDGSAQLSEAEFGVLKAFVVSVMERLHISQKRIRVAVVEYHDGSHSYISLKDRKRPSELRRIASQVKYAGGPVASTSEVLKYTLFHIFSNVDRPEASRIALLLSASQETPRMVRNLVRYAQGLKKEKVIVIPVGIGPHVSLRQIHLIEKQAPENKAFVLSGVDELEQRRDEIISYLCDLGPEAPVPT
assay_text: 3-point dot blot screen, rabbit vWF A1 domain
Assay type: binding
assay_setup: rRfY aptamers; 100 nM rabbit vWF A1 domain; ratio of fraction bound with target to without
Oligonucleotides are written 5' to 3', each unit as a sugar letter and its base; * is a phosphorothioate linkage, no mark a phosphodiester; rarer units and linkages stand in square brackets, end groups in braces. Plain capitals give the bases only. r = 2'-OH (RNA); f = 2'-fluoro
Consider the following molecules; for each one, report its Screen- Rabbit/No Protein.
One number for each entry.

molecule	Screen- Rabbit/No Protein
AMX198.E11: rRfY aptamer clone (nucleic acid) rGrGrArGfCrGfCrAfCfUfCrArGfCfCrAfCrGrGfUrArAfCrAfUfUrGfUfUfUfCfCrGrGfCrGrAfUfUfCfUfUfUrGrArAfCrGfCfCrGfUfCrGfUrGrGfUfUfUfCrGrAfCfCfUfCfUfCfUrGfCfUrArGfC	2.37
AMX198.A10: rRfY aptamer clone (nucleic acid) rGrGrArGfCrGfCrAfCfUfCrArGfCfCrAfCfCrArGfUfUrAfUrGfCfUrGrGfCfUfUfUrGrGfUfCfUfUfUrGrAfCfUrGfUfCfUrGrArGfUrGfUfUfCrGfUfUfUfCrGrAfCfCfUfCfUfCfUrGfCfUrArGfC	5.74

Now turn to the next molecule.
molecule AMX201.D10: rRfY aptamer clone (nucleic acid) rGrGrArGfCrGfCrAfCfUfCrArGfCfCrAfCrAfCfUrGrArGrGfCfUrGrGrAfUrAfUfCfUrAfCrGrArGrArGrGrArArGfUrGfCfUrGfCfUfUrGrGrAfUfUfUfCrGrAfCfCfUfCfUfCfUrGfCfUrArGfC , Screen- Rabbit/No Protein observed: 1.52
